Molecular target: recombinant rat L-type calcium channel (LTCC) subunits (α1c, α2δ, and β1) (Rattus norvegicus)
Construct: α1c in pcDNA6.2DEST, β1 in pcDNA3.2DEST, α2δ in pcDNA3.1-Zeo
Assay: FLIPR calcium mobilization assay for L-type calcium channel
Details: calcium mobilization in vitro assay; HEK293 cells stably expressing rat LTCC subunits, 90 mM KCl
ASSAY_METRIC: IC50 (µM)
State just the number; it will be interpreted in µM.

O=C(NCCN1CCC(N(C2CC2)S(=O)(=O)c2cccc(C(F)(F)F)c2)CC1)c1ccc(F)cc1 [Compound 14a]: 6.74

// next entry
If you can, please state the reported IC50 value of CC(CC(=O)NC(C)(C)C)N1CCC(N(C(C)C)S(=O)(=O)c2cccc(C(F)(F)F)c2)CC1 (stereo not shown) [Compound 25] .
8.45

###

Target: N-type calcium channel (NTCC) (Homo sapiens)
Construct: endogenous in cells
Experiment: FLIPR calcium mobilization assay for N-type calcium channel
Settings: calcium mobilization in vitro assay; differentiated IMR32 cells, 5 μM nitrendipine, 90 mM KCl
Form field: IC50 (one value per entry).
Use µM as the unit, but write only the number.

Solved cases below.
O=C(NCCN1CCC(N(C2CC2)S(=O)(=O)c2cccc(C(F)(F)F)c2)CC1)c1ccc(F)cc1 [Compound 14a]: 0.38
CCOC(=O)c1cc(F)cc(N2CCC(N(C3CC3)S(=O)(=O)c3cccc(C(F)(F)F)c3)CC2)c1 [Compound 10c]: 1.07
O=C(NCCN1CCC(N(C2CC2)S(=O)(=O)c2cccc(C(F)(F)F)c2)CC1)c1cc(C(F)(F)F)cc(C(F)(F)F)c1 [Compound 14b]: 1.13

Pending compound:
Query (compound): CC(C)N(C1CCN(CC(=O)NC2CCCCCC2)CC1)S(=O)(=O)c1cccc(C(F)(F)F)c1 [Compound 31c] ; field requested: IC50
0.26

###

Biological target: N-type calcium channel (NTCC) (Homo sapiens, UniProt Q00975)
Construct: endogenous in cells
Sequence (Q00975 whole entry): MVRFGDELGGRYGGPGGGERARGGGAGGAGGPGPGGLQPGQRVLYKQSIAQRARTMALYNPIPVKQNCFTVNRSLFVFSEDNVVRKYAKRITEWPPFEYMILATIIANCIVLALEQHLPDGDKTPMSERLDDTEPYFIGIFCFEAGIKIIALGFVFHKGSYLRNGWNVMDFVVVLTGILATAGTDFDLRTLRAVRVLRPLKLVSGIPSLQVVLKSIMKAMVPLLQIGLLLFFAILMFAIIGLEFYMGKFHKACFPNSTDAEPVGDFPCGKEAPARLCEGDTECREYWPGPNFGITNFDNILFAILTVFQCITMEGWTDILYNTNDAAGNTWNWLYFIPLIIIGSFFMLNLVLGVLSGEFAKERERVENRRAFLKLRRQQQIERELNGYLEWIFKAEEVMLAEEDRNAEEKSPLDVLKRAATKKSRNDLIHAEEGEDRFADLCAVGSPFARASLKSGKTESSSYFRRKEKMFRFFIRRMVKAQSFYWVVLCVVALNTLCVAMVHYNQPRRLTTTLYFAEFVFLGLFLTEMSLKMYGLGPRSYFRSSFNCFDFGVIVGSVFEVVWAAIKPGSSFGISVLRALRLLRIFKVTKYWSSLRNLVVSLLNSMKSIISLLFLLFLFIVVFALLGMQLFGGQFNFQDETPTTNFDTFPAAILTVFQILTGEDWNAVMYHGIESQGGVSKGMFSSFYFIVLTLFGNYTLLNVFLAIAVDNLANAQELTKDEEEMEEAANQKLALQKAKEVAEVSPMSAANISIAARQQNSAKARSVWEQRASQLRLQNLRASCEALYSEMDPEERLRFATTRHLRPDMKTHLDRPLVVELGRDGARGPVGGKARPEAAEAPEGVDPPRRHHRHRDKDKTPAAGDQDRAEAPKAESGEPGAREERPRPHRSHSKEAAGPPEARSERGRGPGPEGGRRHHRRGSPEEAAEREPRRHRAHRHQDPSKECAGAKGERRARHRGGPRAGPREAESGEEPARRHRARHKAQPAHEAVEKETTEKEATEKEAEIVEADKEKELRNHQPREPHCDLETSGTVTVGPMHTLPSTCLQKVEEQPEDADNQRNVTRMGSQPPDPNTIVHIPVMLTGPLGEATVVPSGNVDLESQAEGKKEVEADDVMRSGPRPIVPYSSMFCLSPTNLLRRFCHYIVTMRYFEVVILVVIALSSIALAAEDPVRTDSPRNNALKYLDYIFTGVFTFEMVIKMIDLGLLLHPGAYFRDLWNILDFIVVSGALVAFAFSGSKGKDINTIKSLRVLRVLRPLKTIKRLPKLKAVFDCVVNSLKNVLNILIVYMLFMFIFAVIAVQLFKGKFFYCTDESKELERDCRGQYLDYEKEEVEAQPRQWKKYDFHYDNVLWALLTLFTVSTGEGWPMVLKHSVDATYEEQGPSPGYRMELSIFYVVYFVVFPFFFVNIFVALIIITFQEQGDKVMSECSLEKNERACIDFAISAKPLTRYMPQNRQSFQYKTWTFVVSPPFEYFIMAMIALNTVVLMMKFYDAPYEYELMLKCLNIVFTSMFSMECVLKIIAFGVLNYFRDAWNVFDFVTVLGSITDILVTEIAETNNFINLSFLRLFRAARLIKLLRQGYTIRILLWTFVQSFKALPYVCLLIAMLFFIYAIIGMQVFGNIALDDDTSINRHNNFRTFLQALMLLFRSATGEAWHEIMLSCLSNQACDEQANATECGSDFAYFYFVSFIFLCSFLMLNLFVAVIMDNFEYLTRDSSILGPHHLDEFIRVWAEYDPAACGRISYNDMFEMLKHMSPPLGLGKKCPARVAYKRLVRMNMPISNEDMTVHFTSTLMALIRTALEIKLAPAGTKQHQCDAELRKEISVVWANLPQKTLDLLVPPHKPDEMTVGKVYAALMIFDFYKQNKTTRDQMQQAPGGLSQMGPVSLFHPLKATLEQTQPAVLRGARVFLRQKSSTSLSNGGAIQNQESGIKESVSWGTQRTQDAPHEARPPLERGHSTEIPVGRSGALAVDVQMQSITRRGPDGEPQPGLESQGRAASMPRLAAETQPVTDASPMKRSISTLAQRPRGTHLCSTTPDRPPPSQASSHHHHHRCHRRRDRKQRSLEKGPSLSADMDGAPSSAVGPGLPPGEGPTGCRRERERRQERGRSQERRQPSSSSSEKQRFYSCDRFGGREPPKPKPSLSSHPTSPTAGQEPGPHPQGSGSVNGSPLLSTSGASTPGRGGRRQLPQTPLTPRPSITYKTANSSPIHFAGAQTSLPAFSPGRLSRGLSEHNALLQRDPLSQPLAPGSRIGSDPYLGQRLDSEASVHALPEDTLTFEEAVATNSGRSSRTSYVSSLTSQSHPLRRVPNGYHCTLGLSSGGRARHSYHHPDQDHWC
Sequence (P54289 25-956 partner limits assumed): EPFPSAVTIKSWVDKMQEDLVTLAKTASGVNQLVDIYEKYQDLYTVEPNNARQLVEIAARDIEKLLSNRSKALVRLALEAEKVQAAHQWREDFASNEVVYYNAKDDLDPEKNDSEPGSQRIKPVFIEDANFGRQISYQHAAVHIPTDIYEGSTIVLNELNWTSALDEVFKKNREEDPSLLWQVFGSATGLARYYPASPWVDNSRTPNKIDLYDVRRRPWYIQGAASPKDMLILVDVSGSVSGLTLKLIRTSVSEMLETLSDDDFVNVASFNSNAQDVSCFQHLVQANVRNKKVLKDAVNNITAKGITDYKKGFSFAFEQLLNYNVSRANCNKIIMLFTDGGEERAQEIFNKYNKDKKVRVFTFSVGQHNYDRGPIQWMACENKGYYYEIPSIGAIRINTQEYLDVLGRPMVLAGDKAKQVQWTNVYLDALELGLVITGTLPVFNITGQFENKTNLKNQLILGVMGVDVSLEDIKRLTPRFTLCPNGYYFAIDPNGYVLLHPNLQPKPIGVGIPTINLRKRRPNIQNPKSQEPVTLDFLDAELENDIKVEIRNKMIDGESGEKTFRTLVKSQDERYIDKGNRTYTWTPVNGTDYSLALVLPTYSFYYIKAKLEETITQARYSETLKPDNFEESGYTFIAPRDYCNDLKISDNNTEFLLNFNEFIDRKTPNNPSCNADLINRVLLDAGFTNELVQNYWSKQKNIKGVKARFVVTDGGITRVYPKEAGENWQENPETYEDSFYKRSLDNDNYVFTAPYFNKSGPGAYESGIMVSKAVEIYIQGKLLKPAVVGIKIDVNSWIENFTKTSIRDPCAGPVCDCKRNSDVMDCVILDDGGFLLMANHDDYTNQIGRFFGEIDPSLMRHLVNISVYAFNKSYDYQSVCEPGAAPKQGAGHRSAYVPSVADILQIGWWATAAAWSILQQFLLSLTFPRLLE
Sequence (P54289 957-1103 partner limits assumed): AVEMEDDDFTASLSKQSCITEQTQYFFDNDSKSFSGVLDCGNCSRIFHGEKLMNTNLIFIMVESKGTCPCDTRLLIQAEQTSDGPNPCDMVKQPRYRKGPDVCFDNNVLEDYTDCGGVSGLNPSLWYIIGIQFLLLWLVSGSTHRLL
Sequence (P54284 whole entry partner): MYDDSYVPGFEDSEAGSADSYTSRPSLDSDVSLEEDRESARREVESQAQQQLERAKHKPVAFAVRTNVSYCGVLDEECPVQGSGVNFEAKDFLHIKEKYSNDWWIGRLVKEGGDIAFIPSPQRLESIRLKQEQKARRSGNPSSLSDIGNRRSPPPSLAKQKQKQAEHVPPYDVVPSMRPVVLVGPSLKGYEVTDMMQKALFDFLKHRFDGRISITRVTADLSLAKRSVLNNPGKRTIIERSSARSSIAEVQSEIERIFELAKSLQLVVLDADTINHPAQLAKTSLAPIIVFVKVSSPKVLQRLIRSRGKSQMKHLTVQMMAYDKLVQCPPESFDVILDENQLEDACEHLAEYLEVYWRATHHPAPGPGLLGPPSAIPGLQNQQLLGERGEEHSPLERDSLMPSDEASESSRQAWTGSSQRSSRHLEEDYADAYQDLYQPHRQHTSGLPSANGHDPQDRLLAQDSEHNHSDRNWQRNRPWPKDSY
Test: FLIPR calcium mobilization assay for N-type calcium channel
Settings: calcium mobilization in vitro assay; differentiated IMR32 cells, 5 μM nitrendipine, 90 mM KCl
ASSAY_METRIC: pIC50
Expect pIC50 as a plain number equal to -log10 of the molar concentration.

CC(C)N(C1CCN(CC(=O)NC2CCOC2)CC1)S(=O)(=O)c1cccc(C(F)(F)F)c1 (centres unmarked) [Compound 31e]: 5.49
CC(C)(C(=O)Nc1ccc(F)cc1)N1CCC(N(C2CC2)S(=O)(=O)c2cccc(C(F)(F)F)c2)CC1 [Compound 21b]: 6.22
CC(C)N(C1CCN(CC(=O)N2CCCC2)CC1)S(=O)(=O)c1cccc(C(F)(F)F)c1 [Compound 31b]: 5.79
CC(C)N(C1CCN(CC(=O)N2CCCCCC2)CC1)S(=O)(=O)c1cccc(C(F)(F)F)c1 [Compound 31a]: 6.52
CCOC(=O)C(C)(C)N1CCC(N(C(C)C)S(=O)(=O)c2cccc(C(F)(F)F)c2)CC1: 6.21
CC(C)N(C1CCN(CCC(=O)N2CCCCC2)CC1)S(=O)(=O)c1cccc(C(F)(F)F)c1: 6.11

Would you kindly share the measured pIC50 for O=C(CN1CCC(N(C2CC2)S(=O)(=O)c2cccc(C(F)(F)F)c2)CC1)Oc1ccc(Cl)cc1 ?
6.22

Reported pIC50 for CC(C)N(C1CCN(CC(=O)NC2CC3CCC2C3)CC1)S(=O)(=O)c1cccc(C(F)(F)F)c1 (centres unmarked) [Compound 31d] : what is it?
6.47

###

Biological target: N-type calcium channel (NTCC) (Homo sapiens, UniProt Q00975)
Construct: endogenous in cells
Experiment: FLIPR calcium mobilization assay for N-type calcium channel
Conditions: calcium mobilization in vitro assay; differentiated IMR32 cells, 5 μM nitrendipine, 90 mM KCl
ASSAY_METRIC: pIC50
Quick note: pIC50 means taking -log10 of the concentration in moles per liter.

Return reported pIC50; argument: CC(CC(=O)NC(C)(C)C)N1CCC(N(C(C)C)S(=O)(=O)c2cccc(C(F)(F)F)c2)CC1 (stereo not shown) [Compound 25]
6.62

Sample CCOC(=O)C(C)N1CCC(N(C(C)C)S(=O)(=O)c2cccc(C(F)(F)F)c2)CC1 (stereo not shown) [Compound 8a] — what was its pIC50?
6.00

Bench note: what pIC50 did CC(C)N(C1CCN(C2CCN(c3ccccc3)C2=O)CC1)S(=O)(=O)c1cccc(C(F)(F)F)c1 (stereo not shown) [Compound 27a] show?
6.26

If you can, please state the reported pIC50 value of O=S(=O)(c1cccc(C(F)(F)F)c1)N(C1CC1)C1CCN(c2cc(C(F)(F)F)cc(C(F)(F)F)c2)CC1 [Compound 10e] .
5.20

Consider the compound shown here: CC(C)N(C1CCN(CC(=O)Nc2ccc3c(c2)OC(F)(F)O3)CC1)S(=O)(=O)c1cccc(C(F)(F)F)c1 [Compound 31f] What is its recorded pIC50?
6.24

Look up pIC50: COC(=O)c1ccccc1N1CCC(N(C2CC2)S(=O)(=O)c2cccc(C(F)(F)F)c2)CC1 [Compound 10a]
6.05

Param item = CC(C)(C(=O)Nc1ccc(F)cc1Cl)N1CCC(N(C2CC2)S(=O)(=O)c2cccc(C(F)(F)F)c2)CC1 [Compound 21a] ; retrieve measured pIC50.
5.80

###

Target: recombinant rat L-type calcium channel (LTCC) subunits (α1c, α2δ, and β1) (Rattus norvegicus, UniProt P22002)
Construct: expressed in transfected cells; α1c in pcDNA6.2DEST, β1 in pcDNA3.2DEST, α2δ in pcDNA3.1-Zeo
Test: FLIPR calcium mobilization assay for L-type calcium channel
Type: cell-based
Details: calcium mobilization in vitro assay; HEK293 cells stably expressing rat LTCC subunits, 90 mM KCl
Item-by-item account of IC50

CC(C)(C(=O)Nc1ccc(F)cc1)N1CCC(N(C2CC2)S(=O)(=O)c2cccc(C(F)(F)F)c2)CC1 [Compound 21b]: > 20 µM
CC(C)N(C1CCN(CC(=O)N2CCCCCC2)CC1)S(=O)(=O)c1cccc(C(F)(F)F)c1 [Compound 31a]: > 20 µM
CC(C)N(C1CCN(CC(=O)NC2CC3CCC2C3)CC1)S(=O)(=O)c1cccc(C(F)(F)F)c1 (centres unmarked) [Compound 31d]: 4.12 µM
COC(=O)c1ccccc1N1CCC(N(C2CC2)S(=O)(=O)c2cccc(C(F)(F)F)c2)CC1 [Compound 10a]: > 20 µM

Fill in: IC50 of CC(C)N(C1CCN(CC(=O)Nc2ccc3c(c2)OC(F)(F)O3)CC1)S(=O)(=O)c1cccc(C(F)(F)F)c1 [Compound 31f] is ___
> 20 µM

###

Target: recombinant rat L-type calcium channel (LTCC) subunits (α1c, α2δ, and β1) (Rattus norvegicus, UniProt P22002)
Construct: α1c in pcDNA6.2DEST, β1 in pcDNA3.2DEST, α2δ in pcDNA3.1-Zeo
Assay: FLIPR calcium mobilization assay for L-type calcium channel
Details: calcium mobilization in vitro assay; HEK293 cells stably expressing rat LTCC subunits, 90 mM KCl
Below is a list of entries, each paired with its recorded IC50 value.

Sample answers from the record:
CC(C)N(C1CCN(C2CCN(c3ccccc3)C2=O)CC1)S(=O)(=O)c1cccc(C(F)(F)F)c1 (stereo not shown) [Compound 27a]: > 20 µM
CC(C(=O)Nc1ccccc1)N1CCC(N(C2CC2)S(=O)(=O)c2cccc(C(F)(F)F)c2)CC1 (stereo not shown) [Compound 27b]: > 20 µM
CC(C)N(C1CCN(CCC(=O)N2CCCCC2)CC1)S(=O)(=O)c1cccc(C(F)(F)F)c1 [Compound 18]: > 20 µM

Next item in the queue.
// IC50 lookup, key: CC(C)N(C1CCN(CC(=O)NC2CCCCCC2)CC1)S(=O)(=O)c1cccc(C(F)(F)F)c1 [Compound 31c]
7.85 µM

###

Collected IC50 values appear next to each entry.
Biological target: N-type calcium channel (NTCC) (Homo sapiens)
Construct: endogenous in cells
Experiment: FLIPR calcium mobilization assay for N-type calcium channel
Conditions: calcium mobilization in vitro assay; differentiated IMR32 cells, 5 μM nitrendipine, 90 mM KCl
Quick note: give the figure in nM, leave out the unit.

CCOC(=O)c1cccnc1N1CCC(N(C2CC2)S(=O)(=O)c2cccc(C(F)(F)F)c2)CC1 [Compound 10b]: 1440
CCOC(=O)c1ccc(N2CCC(N(C3CC3)S(=O)(=O)c3cccc(C(F)(F)F)c3)CC2)cc1 [Compound 10d]: 1310

Here's the next entry for you.
Quick one: IC50 for CC(C(=O)Nc1ccccc1)N1CCC(N(C2CC2)S(=O)(=O)c2cccc(C(F)(F)F)c2)CC1 (stereo not drawn) [Compound 27b] ?
390
